Measured OD450 nm values are reported for all entries that follow.
Biological target: T1, polypeptide GC3pep (human)
T1 construct: also called membrane proximal polypeptide GC3pep
T1 peptide: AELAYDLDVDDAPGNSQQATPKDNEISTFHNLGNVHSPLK
Assay: ELISA, GC3pep coated, antibody 10 nM;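 note: antibody bound to the coated peptide for 2 h at 37 °C, detected through an HRP-conjugated secondary antibody with TMB colour development stopped by acid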
Respond numerically; units are OD450 nm and should not be typed.

Enquiry: Report OD450 nm for F1.57.21 (antibody, human IgG1, kappa, V domains shown, human-murine chimeric antibody) VH: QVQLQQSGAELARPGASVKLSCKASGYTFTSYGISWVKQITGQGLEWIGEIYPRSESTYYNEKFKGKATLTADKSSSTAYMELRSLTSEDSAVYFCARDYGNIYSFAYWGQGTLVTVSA VL: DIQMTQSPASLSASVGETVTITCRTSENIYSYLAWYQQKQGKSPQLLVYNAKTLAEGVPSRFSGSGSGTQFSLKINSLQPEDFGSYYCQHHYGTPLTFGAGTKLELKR
Return: 0.05

Enquiry: Report OD450 nm for F2.23.8 (antibody, human IgG1, kappa, V domains shown, human-murine chimeric antibody) VH: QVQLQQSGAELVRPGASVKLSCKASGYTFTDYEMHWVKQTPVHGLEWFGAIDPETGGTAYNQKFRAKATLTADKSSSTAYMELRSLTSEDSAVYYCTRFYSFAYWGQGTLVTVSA VL: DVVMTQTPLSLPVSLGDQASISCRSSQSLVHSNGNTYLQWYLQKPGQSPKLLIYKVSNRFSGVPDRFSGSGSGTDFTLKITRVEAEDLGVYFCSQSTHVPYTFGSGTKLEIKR
Return: 2.42

Enquiry: Report OD450 nm for F1.153.1 (antibody, human IgG1, kappa, V domains shown, human-murine chimeric antibody) VH: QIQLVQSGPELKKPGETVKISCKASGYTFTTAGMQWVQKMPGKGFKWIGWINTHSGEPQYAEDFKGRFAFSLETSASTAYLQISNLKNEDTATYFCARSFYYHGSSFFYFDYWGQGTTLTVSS VL: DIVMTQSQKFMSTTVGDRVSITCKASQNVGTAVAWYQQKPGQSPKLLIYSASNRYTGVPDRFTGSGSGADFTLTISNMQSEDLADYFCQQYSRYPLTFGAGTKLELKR
Return: 0.05

Enquiry: Report OD450 nm for F4.18.4 (antibody, human IgG1, kappa, V domains shown, human-murine chimeric antibody) VH: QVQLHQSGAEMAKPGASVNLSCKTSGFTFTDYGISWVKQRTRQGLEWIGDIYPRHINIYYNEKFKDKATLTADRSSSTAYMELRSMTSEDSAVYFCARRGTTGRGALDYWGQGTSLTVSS VL: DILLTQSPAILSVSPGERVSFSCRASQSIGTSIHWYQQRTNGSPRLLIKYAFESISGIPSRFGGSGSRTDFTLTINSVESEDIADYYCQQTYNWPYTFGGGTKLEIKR
Return: 0.03

Enquiry: Report OD450 nm for F1.145.22 (antibody, human IgG1, kappa, V domains shown, human-murine chimeric antibody) VH: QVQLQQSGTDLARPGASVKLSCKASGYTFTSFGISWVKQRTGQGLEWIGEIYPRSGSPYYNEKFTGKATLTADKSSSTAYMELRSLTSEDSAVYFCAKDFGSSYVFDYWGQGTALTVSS VL: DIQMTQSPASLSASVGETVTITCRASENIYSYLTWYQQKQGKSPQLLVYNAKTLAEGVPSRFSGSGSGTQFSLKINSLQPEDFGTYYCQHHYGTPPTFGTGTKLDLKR
Return: 0.05
